System: Trichophyton Mentagrophytes (ATCC 9533) | Read-out: MIC
# output: numeric value plus its unit

`O=C(c1ccc2cccnc2c1O)N1CCCc2ccc(F)cc21` tested on Trichophyton Mentagrophytes (ATCC 9533) gave MIC: 2 µg/mL

Let me check: `O=C(c1ccc2cccnc2c1O)N1CCCc2c(Cl)ccc(O)c21` , system Trichophyton Mentagrophytes (ATCC 9533), measured MIC is 2 µg/mL

Item: `O=C(c1ccc2cccnc2c1O)N1CCCc2cc(F)ccc21` | System: Trichophyton Mentagrophytes (ATCC 9533) | MIC: 2 µg/mL

Field MIC (system: Trichophyton Mentagrophytes (ATCC 9533)) for entry `CN(C(=O)c1ccc2cccnc2c1O)c1ccc(Br)cc1` = 1 µg/mL

GET /values?item= `O=C(c1ccc2cccnc2c1O)N1CCOc2ccccc21` &system= Trichophyton Mentagrophytes (ATCC 9533) returns MIC: 1.41 µg/mL

Field MIC (system: Trichophyton Mentagrophytes (ATCC 9533)) for entry `O=C(c1ccc2cccnc2c1O)N1Cc2ccccc2C1` = 2 µg/mL
